Measured inhibition at 1.25 µg/mL of individual entries
System: RAW264.7
Test: Antiinflammatory activity in mouse RAW264.7 cells assessed as inhibition of LPS induced iNOS-dependent nitric oxide production at 1.25 ug/ml after 24 hrs by Griess assay relative to control
Format: functional
Conditions: RAW264.7, 24 h
Measured property: inhibition at 1.25 µg/mL (%)

- COc1cc(C(=O)CCc2cccc(OC)c2OC)ccc1O: 0.1
- COc1ccc(CCCc2ccc(OC)c(OC)c2OC)c(O)c1: 33.3
- COc1ccc(CCCc2cccc(O)c2)c(OC)c1: 16.2
- COc1ccc(CCC(=O)c2cccc(O)c2)cc1: 5.1
- COc1ccc(C(=O)/C=C/c2cc(OC)ccc2OC)c(O)c1: 7.4
- O=C(CCc1ccc2c(c1)OCO2)c1ccc(O)cc1: 2
- COc1cc(C(=O)CCc2ccc3c(c2)OCO3)ccc1O: 4.2
- COc1cc(CCCc2ccc3c(c2)OCO3)ccc1O: 42.4
- COc1cc(/C=C/C(=O)c2cccc(O)c2)ccc1O: 3
- COc1cc(CCC(=O)c2cccc(O)c2)ccc1O: 5.6
- COc1ccc(C(=O)CCc2ccc3c(c2)OCO3)c(OC)c1: 0.2
- COc1ccc(C(=O)/C=C/c2ccc(OC)c(OC)c2)c(O)c1: 9.1
- COc1ccc(/C=C/C(=O)c2ccc(OC)cc2O)cc1: 9.4
- COc1cc(CCCc2cccc(OC)c2OC)ccc1O: 43.3
- COc1ccc(C(=O)CCc2ccc(OC)cc2OC)c(O)c1: 3
- COc1ccc(C(=O)CCc2ccc(OC)c(OC)c2)c(O)c1: 18.4
- COc1ccc(CCC(=O)c2ccc(OC)c(OC)c2)cc1: 14.1
- COc1ccc(C(=O)/C=C/c2cccc(OC)c2OC)c(O)c1: 1.3
- Oc1ccc(CCCc2ccc3c(c2)OCO3)cc1: 33
- COc1ccc(C(=O)CCc2cc(OC)ccc2OC)c(O)c1: 6.6
- COc1ccc(/C=C/C(=O)c2ccc(O)c(OC)c2)cc1: 7.7
- COc1ccc(/C=C/C(=O)c2cccc(O)c2)c(OC)c1: 1.6
- COc1cccc(/C=C/C(=O)c2cccc(O)c2)c1OC: 1.8
- COc1ccc(OC)c(/C=C/C(=O)c2cccc(O)c2)c1: 2.8
- COc1ccc(C(=O)CCc2ccc(OC)c(OC)c2OC)c(O)c1: 0.9
- COc1ccc(CCC(=O)c2ccc(OC)c(OC)c2)cc1O: 2.9
- COc1cccc(CCC(=O)c2cccc(O)c2)c1OC: 7.5
- COc1ccc(CCCc2cccc(O)c2)cc1OC: 13.9
- COc1ccc(/C=C/C(=O)c2ccc(OC)c(OC)c2)cc1O: 1.1
- COc1ccc(CCC(=O)c2ccc(OC)cc2O)cc1: 7.8
- COc1ccc(/C=C/C(=O)c2cccc(O)c2)cc1OC: 1.7
- COc1ccc(CCCc2ccc3c(c2)OCO3)c(OC)c1: 16.9
- COc1ccc(C(=O)CCc2ccc3c(c2)OCO3)c(O)c1: 5.1
- COc1ccc(CCC(=O)c2cccc(O)c2)c(OC)c1: 7.9
- COc1ccc(/C=C/C(=O)c2ccc(OC)c(OC)c2)cc1OC: 0.2
- COc1ccc(CCCc2ccc(OC)c(OC)c2)cc1O: 32.4
- COc1ccc(CCCc2ccc3c(c2)OCO3)c(O)c1: 32.6
- COc1ccc(CCCc2ccc(OC)cc2OC)c(O)c1: 10.4
- COc1ccc(/C=C/C(=O)c2cccc(O)c2)cc1: 9.4
- COc1cc(CCCc2cccc(O)c2)ccc1O: 10.9
- COc1ccc(C(=O)CCc2cccc(OC)c2OC)c(O)c1: 0.8
- COc1ccc(CCC(=O)c2cccc(O)c2)cc1OC: 5.4
- COc1ccc(CCCc2ccc(OC)cc2O)cc1: 25.7
- COc1ccc(C(=O)/C=C/c2ccc(OC)c(OC)c2OC)c(O)c1: 9.1
